Here, each record is paired with measured viability at 18 h, 0.075 µM data.
test: Phototoxicity human CD8 positive cells co-cultured with GFP expressing human HUT78 cells assessed as cell survival at 7.5 x 10^-8 M preincubated 20 mins in photosensitizer media followed by growth in photosensitizer-free media for 30 mins measured 18 hrs after exposure to 5 J/cm2 irradiation by FACS analysis; format: cell-based; details: read-out: Survival
Report as a plain number; the unit % is understood.

Consider the reported viability at 18 h, 0.075 µM for these molecules:
| Compound | Endpoint result |
| --- | --- |
| C[N+]1=c2cc3c(cc2C(C)(C)CC1)=C(c1ccc(C(=O)N2CCCCC2)s1)c1cc2c4c(c1[Se]3)CCCN4CCC2.[Cl-] | 24.5 |
| S=C(c1ccc(C2=c3cc4c5c(c3[Se]c3c2cc2c6c3CCCN6CCC2)CCC[N+]=5CCC4)s1)N1CCCCC1.[Cl-] | 11.3 |
| CN1CCC(C)(C)c2cc3c(cc21)[Se]c1cc2c(cc1=C3c1ccc(C(=O)N3CCCCC3)s1)C(C)(C)CC[N+]=2C.[Cl-] | 42.4 |

Next item in the queue.
Exercise: Could you tell me which viability at 18 h, 0.075 µM is on file for O=C(c1ccc(C2=c3cc4c5c(c3[Se]c3c2cc2c6c3CCCN6CCC2)CCC[N+]=5CCC4)s1)N1CCCCC1.[Cl-] ?
Key: 78

* * *

test: Drug extrusion in SEB-stimulated human CD25 positive cells assessed as mean fluorescence intensity at 5 x 10^-8 M preincubated for 20 mins followed by growth in photosensitizer-free media for 30 mins by flow cytometric analysis relative to control; conditions: 0.5 h, 0.05 µM
Reported Flu intensity values for a set of compounds
The answer is to be given in a.u.; state only the numeric part.

These recorded examples may help you get a feel for the data.
| Compound | Unit label | Flu intensity |
| --- | --- | --- |
| CN1CCC(C)(C)c2cc3c(-c4ccc(C(=O)N5CCCCC5)s4)c4ccc(=[N+](C)C)cc-4[se]c3cc21.[Cl-] | a.u. | 3110 |
| C[N+]1=c2cc3c(cc2C(C)(C)CC1)=C(c1ccc(C(=O)N2CCCCC2)s1)c1cc2c4c(c1[Se]3)CCCN4CCC2.[Cl-] | a.u. | 25000 |
| C[N+]1=c2cc3c(cc2C(C)(C)CC1)=C(c1ccc(C(=S)N2CCCCC2)s1)c1cc2c4c(c1[Se]3)CCCN4CCC2.[Cl-] | a.u. | 33800 |

Here is another compound to look at.
Exercise: Value lookup for Flu intensity; key = CN1CCC(C)(C)c2cc3c(cc21)[Se]c1cc2c(cc1=C3c1ccc(C(=O)N3CCCCC3)s1)C(C)(C)CC[N+]=2C.[Cl-]
Key: 7300

* * *

test system: HuT78; conditions: human, hut78, 0.5 h, 0.075 µM
Quantity measured: Flu intensity
Phrase the answer as number then unit, nothing more needed.

| Compound | Flu intensity |
| --- | --- |
| S=C(c1ccc(C2=c3cc4c5c(c3[Se]c3c2cc2c6c3CCCN6CCC2)CCC[N+]=5CCC4)s1)N1CCCCC1.[Cl-] | 66000 a.u. |

Exercise: // lookup Flu intensity for CN1CCC(C)(C)c2cc3c(cc21)[Se]c1cc2c(cc1=C3c1ccc(C(=S)N3CCCCC3)s1)C(C)(C)CC[N+]=2C.[Cl-]
Key: 11700 a.u.

Exercise: Let us now turn to O=C(c1ccc(C2=c3cc4c5c(c3[Se]c3c2cc2c6c3CCCN6CCC2)CCC[N+]=5CCC4)s1)N1CCCCC1.[Cl-]
Key: 4500 a.u.

Exercise: Similarly, CN1CCC(C)(C)c2cc3c(-c4ccc(C(=S)N5CCCCC5)s4)c4ccc(=[N+](C)C)cc-4[se]c3cc21.[Cl-] ?
Key: 37600 a.u.
